# inhibition values compiled below
Assay: inhibition of PEG-3 promoter activity – cell-based, HeLa, luciferase luminescence, primary screen (AID 588405)
Conditions: HeLa PEG-Prom luciferase reporter, overnight, at 20 µM, stronger effect = higher value
Hit rate of the full screen: of about 360,000 compounds, about 6,200 (1.7%) were called active. Only a selection was taken, and actives are over-represented in it overall.
readout.kind: inhibition (%)

> print(dat)
                                    compound  quantitative.readout
 1  CC1(C(=O)NCc2cccc3ccccc23)CCN1Cc1ccc(-c2ccccc2)o1 (stereo unspecified)                  21.9
 2  O=c1oc2ccccc2cc1-c1cn(-c2ccccc2)c(=S)[nH]1                  98.7
 3  O=C(N=C1SC2CS(=O)(=O)CC2N1c1cc(Cl)ccc1Cl)C1CC1 (stereo unspecified)                  3.34
 4  COc1ccc(-c2cc(C(=O)NCCCN3CCCC3=O)c3ccccc3n2)cc1OC                 -2.28
 5  CN(C)c1ccc(Nc2c3c4c(cccc4n(C)c2=O)C(=O)c2ccccc2-3)cc1                  54.9
 6  COc1ccc(CN(C)C(=O)Cc2c[nH]c3ccccc23)c(OC)c1OC                  13.2
 7  COc1cc(/C=C2/C(=O)ON=C2C)ccc1OCc1ccccc1F                  66.5
 8  Cc1cc(Br)ccc1NC(=O)c1cnc(N2CCN(c3ccccn3)CC2)c2ccccc12                  64.2
 9  COc1ccc(-c2cc(C(=O)N(C)CC(=O)Nc3ccccc3Cl)c3ccccc3n2)cc1OC                  43.6
10  CN(Cc1cccs1)C(=O)CN1C(=O)c2ccccc2S1(=O)=O                 -42.7
11  CC(C)(C)c1cc(C(=O)N/N=C/c2ccc([N+](=O)[O-])s2)n[nH]1                  50.6
12           COc1ccc(/C(C)=N/N2CCOCC2)c(O)c1                 -9.18
13  Cc1c(CN2CCC(CO)(CCOc3ccccc3)CC2)[nH]c2ccc(Cl)cc12                  85.4
14  Cc1ccc(-c2nn(-c3ccccc3)cc2/C=C2\SC(=S)N(CCCCCC(=O)O)C2=O)o1                 -22.9
15     Cc1nc2ccccc2nc(C)c1=NOCc1ccc(Cl)cc1Cl                  29.6
16  O=C(CN1C(=O)NC2(CCOc3ccccc32)C1=O)NCc1ccc(F)cc1 (stereo unspecified)                  20.2
17  CC(C)NC(=O)C1(C)CCCCCN1C(=O)c1ccc(-c2ccccc2)cc1 (stereo unspecified)                 -0.82
18  COc1ccc(C(C)(NC(C)=O)c2nc(-c3ccc(S(C)(=O)=O)cc3)cs2)cc1 (stereo unspecified)                  7.41
19       CS(=O)(=O)N(CC(=O)N1CCCC1)Cc1ccccc1                  3.29
20  CC(C)(C(=O)N1CCC1(C)C(=O)NS(=O)(=O)c1ccc(Br)cc1)c1ccccc1 (stereo unspecified)                  3.42
21  CCN(CC)C(=O)CC(c1ccc2c(c1)OCO2)c1c(OC)cc(OC)c2c(-c3ccccc3)cc(=O)oc12 (stereo unspecified)                  7.97
22  CCOC(=O)c1c(NC(=O)CCl)sc(C(=O)N(CC)CC)c1C                  67.2
23  COc1ccc(-c2cc(C(=O)n3cnc4ccccc43)c3ccccc3n2)cc1                   -64
24    O=C(CNC(c1ccccc1)c1ccccc1)Nc1ccc(F)cc1                  6.17
25  CCOC(=O)C1(CCOc2ccccc2)CCN(Cc2ccc(C#CCCO)cc2)CC1                  15.7
26  C=C(C)COc1ccc(-c2ncncc2-c2ccc(OC)cc2)c(O)c1                 -25.6
27  CCCNC(=O)C1(C)CCN(C(=O)c2cc(F)ccc2C)C1 (stereo unspecified)                 -1.83
28  CN1OC[C@@H]2CN(C(=O)c3cccnc3)[C@H](c3ccc(N4CCCCC4)cc3)C[C@@H]21                 -11.6
29  CCOC(=O)c1sc(NC(=O)CCN2CCOCC2)c(C(=O)OCC)c1C                  4.41
30  COc1ccc(C(=O)O/N=C(\N)Cc2ccc(Cl)cc2Cl)cc1OC                   110
31  OC[C@@H]1CN(Cc2ccc(-c3ccccc3)cc2)C[C@H](n2cnc3c(NC4CCCC4)ncnc32)O1                  19.6
